Target: AChE in neural stem cells (Homo sapiens)
Sequence (P22303 32-614): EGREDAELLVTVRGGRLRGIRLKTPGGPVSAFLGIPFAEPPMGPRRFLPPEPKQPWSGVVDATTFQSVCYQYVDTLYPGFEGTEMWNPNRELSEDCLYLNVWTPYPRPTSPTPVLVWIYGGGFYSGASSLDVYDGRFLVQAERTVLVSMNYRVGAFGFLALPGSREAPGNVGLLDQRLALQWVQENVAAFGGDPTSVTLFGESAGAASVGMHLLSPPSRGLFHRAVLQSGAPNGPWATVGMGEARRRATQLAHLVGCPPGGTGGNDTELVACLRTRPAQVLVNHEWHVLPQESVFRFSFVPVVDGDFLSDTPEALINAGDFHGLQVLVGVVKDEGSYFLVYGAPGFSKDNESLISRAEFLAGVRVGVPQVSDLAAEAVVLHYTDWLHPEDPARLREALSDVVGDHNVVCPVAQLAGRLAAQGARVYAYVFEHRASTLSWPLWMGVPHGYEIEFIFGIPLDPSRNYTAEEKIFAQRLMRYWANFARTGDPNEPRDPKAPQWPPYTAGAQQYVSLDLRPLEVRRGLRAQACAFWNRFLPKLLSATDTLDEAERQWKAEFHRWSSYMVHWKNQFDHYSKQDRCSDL
Assay: cell-based
Structures can show the parent of a compound that is named as a salt.
Outcome Measure: IC50

Exercise: Item under review: CN1C(=O)COc2c(C(=O)NC3CN4CCC3CC4)cc(Cl)cc21 (stereo not drawn) [Azasetron hydrochloride, reference compound] . Reported IC50?
Solution: 6.88 µM

Exercise: Item under review: CCN(C(=O)c1cc(C)cc(OC[C@H](C)Nc2ccncc2)c1)C(C)C.Cc1ccc(S(=O)(=O)O)cc1 [GW473178E methyl benzene sulfonic acid] . Reported IC50?
Solution: 24.8 µM

Exercise: Item under review: CCN1CCCC1CNC(=O)c1cc(S(=O)(=O)CC)c(N)cc1OC (stereo not drawn) [Amisulpride, reference compound] . Reported IC50?
Solution: 17.2 µM
